Test system: MCMV
Type: cell-based, Murine Cytomegalovirus
Details: 500 μg/ml; mouse embryonic fibroblasts incubated with peptide 30 min prior to virus
Where no end group is shown, it is not given here.
observation.type: inhibition of MCMV infection (plaque reduction)

Task: Item GGGYSKAQKAQAKQAKQAQKAQKAQAKQAKQAQKAQKAQAKQAKQ [GGGY-p5+14] has what recorded inhibition of MCMV infection (plaque reduction)?
Result: > 90%

----------
Biological target: HCMV expressing luciferase (Towne strain)
Type: cell-based, Human Cytomegalovirus
Settings: MRC-5 cells, peptide 30 min prior to virus
Where no end group is shown, it is not given here.
observation.type: IC50

Task: Fill in the blank: the reported IC50 of CGGYSKAQKAQAKQAKQAQKAQKAQAKQAKQ [CGGY-p5] is ____.
Result: ~60 µM
